Molecular target: LuxR (Aliivibrio fischeri)
Sequence (P35327 whole entry): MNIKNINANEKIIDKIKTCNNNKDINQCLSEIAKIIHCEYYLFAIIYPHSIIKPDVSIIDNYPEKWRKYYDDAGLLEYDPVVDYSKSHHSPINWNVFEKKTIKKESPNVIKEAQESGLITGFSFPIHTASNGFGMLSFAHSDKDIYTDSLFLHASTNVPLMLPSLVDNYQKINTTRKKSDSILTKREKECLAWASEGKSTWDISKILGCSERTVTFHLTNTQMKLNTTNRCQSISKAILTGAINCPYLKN
Test: LuxR agonism reporter assay
Assay type: cell-based, Vibrio fischeri
observed_property: pEC50
# pEC50: negative log10 of molar concentration; output just the value

Give the measured pEC50 of `O=C(Cc1cc(C(F)(F)F)cc(C(F)(F)F)c1)N[C@H]1CCOC1=O` . 6.43

And then `N#Cc1cccc(CC(=O)N[C@H]2CCOC2=O)c1` , what is it? 6.52
